Target: T1, CLL-1 bearing a His Tag
T1 construct: also called CLL1 His Tag antigen; His Tag antigen; not shown: The exact limits of the construct are not described
T1 chain: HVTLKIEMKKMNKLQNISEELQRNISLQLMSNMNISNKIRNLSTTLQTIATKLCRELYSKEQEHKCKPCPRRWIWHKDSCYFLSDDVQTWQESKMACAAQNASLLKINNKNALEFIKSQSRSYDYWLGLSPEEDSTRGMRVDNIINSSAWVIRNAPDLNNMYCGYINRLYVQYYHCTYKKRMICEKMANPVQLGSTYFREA
Assay: ELISA on His-tagged CLL-1, purified antibody
Procedure: FIG. 8 is an ELISA analysis of the binding of purified ChM31 (SEQ ID NO:14/SEQ ID NO:10), HuM31-VH2/VL2 (SEQ ID NO:16/SEQ ID NO:12), HuM31-VH3/VL2 (SEQ ID NO:17/SEQ ID NO:12), and HuM31-VH4/VL2 (SEQ ID NO:18/SEQ ID NO:12), antibodies to CLL-1 bearing a His Tag. Each antibody was tested at various concentrations, starting at 1 μg/ml and serial 2-fold dilutions. Absorbance values (Y-axis) are plotted at each antibody concentration tested (X-axis) in the figure. […]
Assay endpoint: EC50 (read off the curve)

// below: answered binders
>  <Binder>
ChM31 (antibody, V domains shown, chimeric M31; also called Chi M31; ChiM31) VH: EVQLQQSGPELVKPGASVKMSCKASGYTFTSYVMHWVKQKPGQGLEWIGYINPYNDGTKYNEKFKGKATLTSDTSSSTAYMELNSLTSEDSAVYFCARPIYFDNDYFDYWGQGTTLKVSS VL: TIVLTQSPASLAVSLGQRATISCRASESVDSYGNSFMHWYQQKPGQPPKLLIYLASNLESGVPARFSGSGSRTDFTLTIDPVEADDAATYYCQQNNYDPWTFGGGTKLEIK

>  <EC50 (read off the curve)>
~0.05 µg/mL

$$$$
>  <Binder>
HuM31-VH4/VL2 (antibody, V domains shown, humanized M31 variant) VH: QVQLVQSGAEVKKPGASVKVSCKASGYTFTSYVMHWVRQAPGRRLEWIGYINPYNDGTKYNEKFKGRVTITSDTSASTAYMELSSLRSEDTAVYYCARPIYFDNDYFDYWGQGTLVTVSS VL: DIVMTQSPDSLAVSLGERATINCRASESVDSYGNSFMHWYQQKPGQPPKLLIYLASNLESGVPARFSGSGSGTDFTLTIDPVEADDAATYYCQQNNYDPWTFGGGTKLEIK

>  <EC50 (read off the curve)>
~0.04 µg/mL

$$$$
>  <Binder>
HuM31-VH3/VL2 (antibody, V domains shown, humanized M31 variant) VH: QVQLVQSGAEVKKPGASVKVSCKASGYTFTSYVMHWVRQAPGRRLEWIGYINPYNDGTKYNEKFKGKATITSDTSASTAYMELSSLRSEDTAVYYCARPIYFDNDYFDYWGQGTLVTVSS VL: DIVMTQSPDSLAVSLGERATINCRASESVDSYGNSFMHWYQQKPGQPPKLLIYLASNLESGVPARFSGSGSGTDFTLTIDPVEADDAATYYCQQNNYDPWTFGGGTKLEIK

>  <EC50 (read off the curve)>
~0.04 µg/mL

$$$$

Now consider a different binder.
Could you tell me which EC50 (read off the curve) is on file for HuM31-VH2/VL2 (antibody, V domains shown, humanized M31 variant) VH: QVQLVQSGAEVKKPGASVKVSCKASGYTFTSYVMHWVRQAPGQRLEWIGYINPYNDGTKYNEKFKGRATLTSDTSTSTAYMELRSLRSDDTAVYYCARPIYFDNDYFDYWGQGTTVTVSS VL: DIVMTQSPDSLAVSLGERATINCRASESVDSYGNSFMHWYQQKPGQPPKLLIYLASNLESGVPARFSGSGSGTDFTLTIDPVEADDAATYYCQQNNYDPWTFGGGTKLEIK ?
~0.06 µg/mL

Recorded values, source patent US20180355044A1.
